target_desc: PD-L1 (Homo sapiens (Human))
experiment: PD-L1/PD-L1 dimerization biochemical protein-protein interaction assay (ALPHA)
Type: binding
reported_conditions: 0.5 nM His tagged PD-L1 and 0.5 nM FLAG tagged PD-L1, Table 4B, read-out: AC50 PDL1 Dimer 1 nM
measure: AC50 (nM)
// note: answer is a bare numeric in nM

In [3]: df
Out[3]:
                                        mol  obs_value
0  COc1nc(-c2cccc(-c3cccc4c3CC[C@@H]4Oc3nc(OC)c(CN4C[C@@H]5C[C@@H]5[C@H]4C(=O)O)cc3C(F)(F)F)c2Cl)ccc1CNC[C@@H]1CCC(=O)N1       11.6

### Prompt AC50 lookup needed for COc1cc(-c2cccc(-c3cccc4c3CC[C@@H]4Oc3nc(OC)c(CN4CC(C)(C(=O)O)C4)cc3C(F)(F)F)c2Cl)ccc1CNC[C@@H]1CCC(=O)N1 , thanks.
### Response 5.83

### Prompt Param item = COc1cc(-c2cccc(-c3cccc4c3CC[C@@H]4Oc3nc(OC)c(CN4CC5(C(=O)O)CCC4CC5)cc3Cl)c2Cl)cc(F)c1CNC[C@@H]1CCC(=O)N1 ; retrieve measured AC50.
### Response 16.5

### Prompt State the recorded AC50 for this entry: COc1nc(-c2cccc(-c3cccc4c3CC[C@@H]4Oc3nc(OCc4cncc(Cl)c4)c(CNC4(C(=O)O)CC4)cc3C(F)(F)F)c2Cl)ccc1CNC[C@@H]1CCC(=O)N1
### Response 4.08

### Prompt For the molecule shown here, CCOC(=O)C1CN(Cc2cc(Cl)c(O[C@H]3CCc4c(-c5cccc(-c6ccc(CNC[C@@H]7CCC(=O)N7)c(OC)n6)c5Cl)cccc43)nc2OC)C1 , give the reported AC50.
### Response 783

### Prompt Query (molecule): COc1nc(-c2cccc(-c3cccc4c3CC[C@@H]4Oc3nc(OC)c(CN4CC[C@@H](C(=O)O)C4)cc3Cl)c2C#N)ccc1CNC[C@@H]1CCC(=O)N1 ; field requested: AC50
### Response 81.7

====

target_desc: PD-L1 (Homo sapiens (Human), UniProt Q9NZQ7)
Sequence (Q9NZQ7 19-238): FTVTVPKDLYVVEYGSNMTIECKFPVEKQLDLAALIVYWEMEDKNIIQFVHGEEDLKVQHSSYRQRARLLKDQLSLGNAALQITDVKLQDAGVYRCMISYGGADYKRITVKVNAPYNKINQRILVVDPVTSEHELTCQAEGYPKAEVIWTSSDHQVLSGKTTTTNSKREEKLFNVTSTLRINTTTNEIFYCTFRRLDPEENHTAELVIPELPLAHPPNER
Sequence (Q9NZQ7 19-238): as above
experiment: PD-L1/PD-L1 dimerization biochemical protein-protein interaction assay (ALPHA)
Type: binding
reported_conditions: 0.5 nM His tagged PD-L1 and 0.5 nM FLAG tagged PD-L1, Table 4B, read-out: AC50 PDL1 Dimer 1 nM
Binning of AC50 into classes: A = under 10 nM, B = from 10 nM up to 70 nM, C = 70 nM and over

compound	target_desc	cat
COc1nc(-c2cccc(-c3cccc4c3CC[C@@H]4Oc3nc(OC)c(CN4CC5(C(=O)O)CCC4CC5)cc3C(F)(F)F)c2Cl)ccc1CNC[C@@H]1CCC(=O)N1	PD-L1 (Homo sapiens (Human), UniProt Q9NZQ7)	A

### Prompt // return the class label for COc1nc(-c2cccc(-c3cccc4c3CC[C@@H]4Oc3nc(OC)c(CN4CC[C@@H](C(=O)O)C4)nc3C)c2Cl)ccc1CNC[C@@H]1CCC(=O)N1
### Response B

### Prompt For the record COC(=O)[C@@H]1CCN(Cc2cc(Cl)c(O[C@H]3CCc4c(-c5cccc(-c6ccc(CNC[C@@H]7CCC(=O)N7)c(OC)n6)c5Cl)cccc43)nc2OC)C1 , report the class its AC50 corresponds to.
### Response C

### Prompt Using the reported AC50, which band applies to COc1nc(O[C@H]2CCc3c(-c4cccc(-c5cc(C)c(CN6CC(C(=O)O)C7(CC7)C6)c(OC)n5)c4Cl)cccc32)c(Cl)cc1CNC[C@@H]1CCC(=O)N1 (some centres unmarked) ?
### Response C

### Prompt Lab note: sort COc1nc(O[C@H]2CCc3c(-c4cccc(-c5cnc(CNC[C@@H]6CCC(=O)N6)c(OC)n5)c4C#N)cccc32)c(Cl)cc1CN1CC[C@@H](C(=O)O)C1 into the matching AC50 band.
### Response C

### Prompt Could you tell me which band COc1nc(-c2cccc(-c3cccc4c3CC[C@@H]4Oc3nc(OC)c(CN4CC5(C(=O)O)CCC4CC5)cc3C(F)(F)F)c2Cl)ccc1CNC[C@@H]1CC(O)C(=O)N1 (some centres unmarked) belongs to?
### Response A

### Prompt Band assignment needed for COc1nc(-c2cccc(-c3cccc4c3CC[C@@H]4Oc3nc(OC)c(CN4C[C@H]5C[C@H]5[C@H]4C(=O)O)cc3C(F)(F)F)c2Cl)ccc1CNC[C@@H]1CCC(=O)N1 please.
### Response A
